Target: HLA-A*23:01
Test: IEDB peptide-MHC binding, purified MHC/competitive/radioactivity; filed as Kd, often an IC50 or EC50 that approximates it; bounds were set here for any values at or beyond the usual limits of such assays
Details: source organism: Lassa virus Josiah
Examples of sequences with documented Kd follow.

>>> df
   monomer_sequence  parameter_measured   result
0        DCIMTSYQYL                  Kd  5.33 µM

Now let's try a different one.
[in] For the sequence SDAHKKNLY , give its measured Kd value.
[out] ≥ 77.7 µM

---

Molecular target: HLA-B*40:01
Assay: IEDB peptide-MHC binding, purified MHC/competitive/radioactivity; filed as Kd, often an IC50 or EC50 that approximates it; bounds were set here for any values at or beyond the usual limits of such assays
Conditions: source organism: Dengue virus 1 Brazil/97-11/1997
Examples of sequences with documented pKd follow.
Please express pKd as -log10 of the molar concentration.

>>> df
   monomer_sequence  result
0         QETWNRQDL    7.14

Now let's try a different one.
[in] For the sequence LEELGDGLAM , give its measured pKd value.
[out] 7.29
